Assignment: determine reported fold change of affinity for the given binders.
- assayed-target: Human CD137 ECD (human)
- Sequence (chain, as listed by the source limits assumed): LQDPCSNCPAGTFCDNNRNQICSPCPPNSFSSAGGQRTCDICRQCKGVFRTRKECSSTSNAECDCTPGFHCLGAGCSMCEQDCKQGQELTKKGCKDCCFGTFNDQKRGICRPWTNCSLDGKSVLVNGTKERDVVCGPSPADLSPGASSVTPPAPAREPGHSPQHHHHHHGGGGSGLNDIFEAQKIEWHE
- method-summary: SPR, vs parent H183/L072
Answers are plain numbers, in fold.

dBBDu183H Y97Q / dBBDu072L (antibody, name in Kabat numbering, V domains shown) VH: QVQLVESGGGLVQPGRSLRLSCAASGFTFSNAWMHWVRQAPGKGLEWVAQIKDKGNAYAAYYAPSVKGRFTISRDDSKNSIYLQMNSLKTEDTAVYYCHYVHQASASTVLPAFGVDAWGQGTTVTVSS VL: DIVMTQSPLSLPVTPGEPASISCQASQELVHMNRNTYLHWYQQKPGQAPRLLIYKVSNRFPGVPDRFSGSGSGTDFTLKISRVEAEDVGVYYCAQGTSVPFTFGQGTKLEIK ... 0
dBBDu183H A102R / dBBDu072L (antibody, name in Kabat numbering, V domains shown) VH: QVQLVESGGGLVQPGRSLRLSCAASGFTFSNAWMHWVRQAPGKGLEWVAQIKDKGNAYAAYYAPSVKGRFTISRDDSKNSIYLQMNSLKTEDTAVYYCHYVHYASASTVLPAFGVDRWGQGTTVTVSS VL: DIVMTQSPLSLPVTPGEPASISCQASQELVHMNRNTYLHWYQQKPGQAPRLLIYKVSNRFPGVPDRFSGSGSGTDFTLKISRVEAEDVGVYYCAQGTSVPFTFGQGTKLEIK ... 0

Below: the item to evaluate.
Exercise: Would you mind telling me what fold change of affinity value was observed for dBBDu183H V95H / dBBDu072L (antibody, name in Kabat numbering, V domains shown) VH: QVQLVESGGGLVQPGRSLRLSCAASGFTFSNAWMHWVRQAPGKGLEWVAQIKDKGNAYAAYYAPSVKGRFTISRDDSKNSIYLQMNSLKTEDTAVYYCHYHHYASASTVLPAFGVDAWGQGTTVTVSS VL: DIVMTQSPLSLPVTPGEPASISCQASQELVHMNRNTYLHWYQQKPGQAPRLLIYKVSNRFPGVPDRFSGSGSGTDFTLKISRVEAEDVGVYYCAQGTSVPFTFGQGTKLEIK ?
Solution: 0
